This collection of values is drawn from the supplement of paper PMC13380429.

- System: Vero E6 infected with SARS-CoV-2
- method: inhibition of SARS-CoV-2 cytopathic effect; higher = more antiviral protection, active = above 15
- conditions used: 10000 nM; 48 h
Recorded measurements of inhibition of SARS-CoV-2 cytopathic effect, one per entry
measurement kind: inhibition of SARS-CoV-2 cytopathic effect (%)

{"columns": ["compound", "reported result"],
 "data": [
  ["CN(C)/N=N/c1[nH]cnc1C(N)=O [dacarbazine]", -3.02],
  ["Cc1c[nH]c2ncnc(N3CCC(CN)(C(=O)Nc4cccc(OC(=O)N(C)C)c4)CC3)c12", 5.79],
  ["Nc1ncnc2c1c(-c1ccc(Cl)cc1)nn2-c1cccc(-c2cnnn2Cc2cccc(-c3ccccc3)c2)c1", -0.83],
  ["C[C@H](N)C(=O)N[C@@H](CCC(N)=O)C(=O)O [dipeptamin]", 0.66],
  ["N[C@H]1CCN(O)C1=O", 0.17],
  ["CCC[C@H](NC(=O)/C(C#N)=C/c1cccc(Br)n1)c1ccccc1", -5.9],
  ["C[N+]1(C)CCCC(OC(=O)C(O)(c2ccccc2)c2ccccc2)C1 (stereo not given) [mepenzolate]", 0.49],
  ["Cc1c(N)c(=O)n(-c2ccccc2)n1C [ampyrone]", -1.12],
  ["OC(CCN1CCCCC1)(c1ccccc1)C1CC2C=CC1C2 (stereo not given) [biperiden]", -2],
  ["CN(C(=O)CCCOc1ccc2[nH]c(=O)ccc2c1)C1CCCCC1 [cilostamide]", -0.25]
]}
